target: Lck (Homo sapiens); assay: Lck kinase activity, TR-FRET assay; type: biochemical; details: read-out: LCK (IC50)
Sequence (P06239 whole entry, species assumed): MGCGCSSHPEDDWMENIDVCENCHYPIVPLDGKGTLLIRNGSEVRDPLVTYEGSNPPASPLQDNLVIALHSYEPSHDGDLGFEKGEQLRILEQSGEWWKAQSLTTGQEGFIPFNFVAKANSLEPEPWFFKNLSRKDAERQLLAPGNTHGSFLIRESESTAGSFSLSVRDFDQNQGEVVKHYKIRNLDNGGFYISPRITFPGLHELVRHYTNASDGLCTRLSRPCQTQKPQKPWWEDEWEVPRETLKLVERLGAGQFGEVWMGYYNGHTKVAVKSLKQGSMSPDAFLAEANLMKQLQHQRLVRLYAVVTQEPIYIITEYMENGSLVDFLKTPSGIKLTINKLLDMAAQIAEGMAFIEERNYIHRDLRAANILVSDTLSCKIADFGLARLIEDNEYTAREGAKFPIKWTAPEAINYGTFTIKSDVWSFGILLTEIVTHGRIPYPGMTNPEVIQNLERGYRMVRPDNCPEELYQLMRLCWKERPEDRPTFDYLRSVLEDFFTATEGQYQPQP
propertyName: IC50

Worked set:
CN(C)CCCC(=O)N[C@@H]1CCCN(c2n[nH]c3nccc(Oc4ccc(C(=O)Nc5cc(C(F)(F)F)ccn5)cc4)c23)C1 [compound 230]
> 10000 nM
CC(=O)N1CC[C@@H](Nc2n[nH]c3nccc(Oc4ccc(Oc5ccccc5)cc4)c23)C1 [compound 46]
< 100 nM
CN(C/C=C/C(=O)N1CC[C@@H](Nc2n[nH]c3nccc(Oc4ccc(Oc5ccccc5)cc4C#N)c23)C1)C1CC1 [compound 35]
1000 to 10000 nM

# evaluate next
Specify reported IC50 for the compound shown: Cc1ccnc(NC(=O)c2ccc(Oc3ccnc4[nH]nc(N[C@@H]5CCCN(C(=O)CCN(C)C)C5)c34)cc2)c1 [compound 118]
< 100 nM

* * *

Reported values of IC50 for individual entries
molecular target: Btk (Homo sapiens); assay: Btk kinase activity, TR-FRET assay; type: biochemical; conditions: read-out: Btk (IC50)
Sequence (Q06187 whole entry): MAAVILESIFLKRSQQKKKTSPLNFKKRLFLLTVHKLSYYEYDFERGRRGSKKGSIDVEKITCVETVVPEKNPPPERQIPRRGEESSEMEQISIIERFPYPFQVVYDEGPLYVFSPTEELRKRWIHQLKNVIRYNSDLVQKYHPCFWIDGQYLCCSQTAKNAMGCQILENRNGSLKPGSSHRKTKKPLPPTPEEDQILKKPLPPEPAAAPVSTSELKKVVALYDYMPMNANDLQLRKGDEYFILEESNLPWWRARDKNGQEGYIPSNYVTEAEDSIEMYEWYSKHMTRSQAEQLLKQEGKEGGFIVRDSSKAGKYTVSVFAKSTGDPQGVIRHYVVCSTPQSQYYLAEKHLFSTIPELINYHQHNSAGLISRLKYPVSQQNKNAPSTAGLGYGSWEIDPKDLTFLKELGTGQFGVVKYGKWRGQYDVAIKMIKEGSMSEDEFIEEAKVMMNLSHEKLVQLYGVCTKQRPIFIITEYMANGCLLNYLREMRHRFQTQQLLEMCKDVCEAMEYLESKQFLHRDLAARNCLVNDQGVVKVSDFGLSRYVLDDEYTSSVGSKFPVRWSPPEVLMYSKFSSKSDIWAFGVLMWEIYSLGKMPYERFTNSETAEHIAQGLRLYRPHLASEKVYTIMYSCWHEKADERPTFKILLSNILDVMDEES

Worked set:
CC#CC(=O)N1CC[C@@H](Nc2n[nH]c3nccc(Oc4ccc(C(=O)Nc5cc(C(F)(F)F)ccn5)cc4)c23)C1
< 100 nM
Cc1ccnc(NC(=O)c2ccc(Oc3ccnc4[nH]nc(N[C@@H]5CCCN(C(=O)C(=O)N(C)C)C5)c34)cc2)c1
< 100 nM
CCCc1ccnc(NC(=O)c2ccc(Oc3ccnc4[nH]nc(N[C@@H]5CCN(C(=O)/C=C/CN(C)C6CC6)C5)c34)cc2)c1
< 100 nM

# evaluate next
Specify reported IC50 for the compound shown: "Cc1cc(NC(=O)c2cccc(Nc3ccnc4[nH]nc(O[C@@H]5CCCN(C(=O)C6CC6)C5)c34)c2)ccc1C(C)C"
100 to 1000 nM

* * *

Reported values of pIC50 for individual entries
target: UniProt P06239; assay: Lck kinase activity, TR-FRET assay; assay type: biochemical; details: read-out: LCK (IC50)
pIC50: −log10 of the molar value.

Worked set:
CN(C)C/C=C/C(=O)N1CC[C@@H](Nc2n[nH]c3nccc(Oc4ccn(Cc5ccccc5)c(=O)c4)c23)C1
< 5.00
Cc1ccnc(NC(=O)c2ccc(Oc3ccnc4[nH]nc(N[C@@H]5CCCN(C(=O)c6ccccn6)C5)c34)cc2)c1
5.00 to 6.00
CCNC(=O)N1CCC[C@@H](Nc2n[nH]c3nccc(Oc4ccc(-c5nc6cccc(C)c6o5)cc4)c23)C1
< 5.00

# evaluate next
Specify reported pIC50 for the molecule shown: "Cc1ccnc(NC(=O)c2ccc(Oc3ccnc4[nH]nc(N[C@@H]5CCCN(S(C)(=O)=O)C5)c34)cc2)c1"
6.00 to 7.00

* * *

target: EGFR (Homo sapiens, UniProt P00533)
Sequence (P00533 25-1210): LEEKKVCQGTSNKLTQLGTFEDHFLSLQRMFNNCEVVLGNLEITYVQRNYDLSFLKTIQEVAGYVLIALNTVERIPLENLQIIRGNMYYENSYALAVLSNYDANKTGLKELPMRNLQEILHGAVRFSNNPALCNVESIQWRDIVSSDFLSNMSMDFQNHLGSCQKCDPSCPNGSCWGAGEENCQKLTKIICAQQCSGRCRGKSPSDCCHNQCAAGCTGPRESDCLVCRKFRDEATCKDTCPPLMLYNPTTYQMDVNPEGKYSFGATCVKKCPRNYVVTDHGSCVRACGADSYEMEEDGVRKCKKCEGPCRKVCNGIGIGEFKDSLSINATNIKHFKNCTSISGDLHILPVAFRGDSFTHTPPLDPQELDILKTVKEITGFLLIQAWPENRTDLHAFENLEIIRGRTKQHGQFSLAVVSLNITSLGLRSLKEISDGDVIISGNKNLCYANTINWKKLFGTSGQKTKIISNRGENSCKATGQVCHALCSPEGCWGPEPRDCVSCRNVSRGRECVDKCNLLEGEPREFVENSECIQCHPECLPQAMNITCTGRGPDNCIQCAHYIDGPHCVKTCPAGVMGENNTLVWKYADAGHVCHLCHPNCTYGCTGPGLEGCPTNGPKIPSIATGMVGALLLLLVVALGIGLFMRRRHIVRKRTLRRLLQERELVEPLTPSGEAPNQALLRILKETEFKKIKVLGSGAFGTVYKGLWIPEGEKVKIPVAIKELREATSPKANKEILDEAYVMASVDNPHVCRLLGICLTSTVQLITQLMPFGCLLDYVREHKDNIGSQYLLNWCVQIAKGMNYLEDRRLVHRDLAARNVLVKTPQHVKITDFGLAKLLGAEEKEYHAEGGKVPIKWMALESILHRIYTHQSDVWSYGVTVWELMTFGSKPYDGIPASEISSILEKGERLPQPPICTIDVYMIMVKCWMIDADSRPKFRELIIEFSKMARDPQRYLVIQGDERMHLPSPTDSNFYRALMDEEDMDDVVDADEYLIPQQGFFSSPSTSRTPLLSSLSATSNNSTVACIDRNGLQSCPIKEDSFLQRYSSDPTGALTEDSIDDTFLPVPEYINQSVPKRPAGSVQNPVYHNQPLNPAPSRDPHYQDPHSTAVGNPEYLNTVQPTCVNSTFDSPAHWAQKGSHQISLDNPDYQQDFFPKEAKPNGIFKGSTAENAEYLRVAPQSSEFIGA
Reported values of IC50 for individual entries

Worked set:
CN(C/C=C/C(=O)N1CC[C@@H](Nc2n[nH]c3nccc(Oc4ccc(C(=O)Nc5ncccn5)cc4)c23)C1)C1CC1 [compound 63]
> 10000 nM
C=CC(=O)N1CC[C@@H](Nc2c[nH]c3nccc(Oc4ccc(Cl)cc4)c23)C1 [compound 7]
1000 to 10000 nM
C=CC(=O)N1CCC[C@@H](Nc2n[nH]c3nccc(Oc4ccc(-c5ncc(C)s5)cc4)c23)C1 [compound 158]
100 to 1000 nM
CCNC(=O)N1CC[C@@H](Nc2n[nH]c3nccc(Oc4ccc(C(=O)Nc5cc(C(F)(F)F)ccn5)cc4)c23)C1 [compound 188]
1000 to 10000 nM
Cc1ccnc(NC(=O)c2ccc(Oc3ccnc4[nH]nc(N[C@@H]5CCCN(C(=O)C6(C#N)CC6)C5)c34)cc2)c1 [compound 101]
> 10000 nM
CC#CC(=O)N1CCC[C@@H](Nc2n[nH]c3nccc(Oc4ccc(C(=O)Nc5nc(C)c(C)s5)cc4)c23)C1 [compound 175]
> 10000 nM

GET IC50 where system = EGFR (Homo sapiens, UniProt P00533) and item = C=CC(=O)N1CCC[C@@H](Nc2n[nH]c3nccc(Oc4ccc(C(=O)Nc5nnc(C)s5)cc4)c23)C1 [compound 187]
100 to 1000 nM
